Target: human PDHK2 (hPDHK2) (Homo sapiens, UniProt Q15119)
Method Notes: Inhibitory action of PDHK2 activity (residual PDH activity, NADH absorbance at 340 nm)
Conditions: PDH/hPDHK2 complex, PDHK reaction 45 min at room temperature
Recorded Metric: pIC50
To interpret pIC50, take it as minus log10 of a concentration measured in moles per litre.

Please look at this molecule and report its pIC50: C[C@H]1Cc2cnc(C(F)(F)F)nc2-c2cnc([C@@](C)(O)C(F)(F)F)n21 (racemic) [Example 6]
6.66

Please look at this molecule and report its pIC50: C[C@H]1Cc2cc(C#N)ccc2-c2cnc([C@@](C)(O)C(F)(F)F)n21 (racemic) [Example 5]
7.68

Please look at this molecule and report its pIC50: C[C@H]1Cn2nc(OCF)cc2-c2cnc([C@@](C)(O)C(F)(F)F)n21 [Example 48]
7.85

Please look at this molecule and report its pIC50: C[C@H]1Cn2nc(C(=O)N(C)C)cc2-c2cnc([C@@](C)(O)C(F)(F)F)n21 [Example 22]
7.92

Please look at this molecule and report its pIC50: C[C@H]1Cn2c(nnc2C2(C)CC2)-c2cnc([C@@](C)(O)C(F)(F)F)n21 [Example 17]
8.14

Please look at this molecule and report its pIC50: C[C@H]1Cn2nc(OCC3CCS(=O)(=O)CC3)cc2-c2cnc([C@@](C)(O)C(F)(F)F)n21 [Example 82]
7.64

Please look at this molecule and report its pIC50: C[C@H]1Cn2nc(OCC(F)(F)F)cc2-c2cnc([C@@](C)(O)C(F)(F)F)n21 [Example 74]
7.92

Please look at this molecule and report its pIC50: C[C@H]1Cn2nc(OCCOC(F)(F)F)cc2-c2cnc([C@@](C)(O)C(F)(F)F)n21 [Example 61]
7.85

Please look at this molecule and report its pIC50: C[C@H]1Cn2c(C(F)(F)F)cnc2-c2cnc([C@@](C)(O)C(F)(F)F)n21 [Example 18]
8.19

Please look at this molecule and report its pIC50: C[C@H]1Cn2nc(Oc3cc(C(F)(F)F)ncn3)cc2-c2cnc([C@@](C)(O)C(F)(F)F)n21 [Example 70]
7.72

Please look at this molecule and report its pIC50: C[C@H]1Cc2c(C(F)(F)F)n[nH]c2-c2cnc([C@@](C)(O)C(F)(F)F)n21 (racemic) [Example 50]
7.57

Please look at this molecule and report its pIC50: C[C@H]1Cn2ncc(F)c2-c2cnc([C@@](C)(O)C(F)(F)F)n21 [Example 44]
7.77

Please look at this molecule and report its pIC50: C[C@H]1Cn2nc(OCc3ccc(C#N)cc3)cc2-c2cnc([C@@](C)(O)C(F)(F)F)n21 [Example 49]
8.06

Please look at this molecule and report its pIC50: C[C@H]1Cn2nc(OC3CN(C(=O)c4ccc(F)cc4)C3)cc2-c2cnc([C@@](C)(O)C(F)(F)F)n21 [Example 58]
8.06

Please look at this molecule and report its pIC50: C[C@H]1Cn2c(nnc2C2CC2c2ccccc2)-c2cnc([C@@](C)(O)C(F)(F)F)n21 (stereo partly shown) [Example 97]
8.21

Please look at this molecule and report its pIC50: C[C@H]1Cn2nc(OCC3CC4CCC(C3)S4(=O)=O)cc2-c2cnc([C@@](C)(O)C(F)(F)F)n21 (stereo partly shown) [Example 83]
7.80
